Provenance of the data: patent US20250388589A1

SYSTEM TESTED: hPARG (C-terminal His6-tag) (Homo sapiens (Human), UniProt Q86W56)
Sequence (Q86W56 whole entry): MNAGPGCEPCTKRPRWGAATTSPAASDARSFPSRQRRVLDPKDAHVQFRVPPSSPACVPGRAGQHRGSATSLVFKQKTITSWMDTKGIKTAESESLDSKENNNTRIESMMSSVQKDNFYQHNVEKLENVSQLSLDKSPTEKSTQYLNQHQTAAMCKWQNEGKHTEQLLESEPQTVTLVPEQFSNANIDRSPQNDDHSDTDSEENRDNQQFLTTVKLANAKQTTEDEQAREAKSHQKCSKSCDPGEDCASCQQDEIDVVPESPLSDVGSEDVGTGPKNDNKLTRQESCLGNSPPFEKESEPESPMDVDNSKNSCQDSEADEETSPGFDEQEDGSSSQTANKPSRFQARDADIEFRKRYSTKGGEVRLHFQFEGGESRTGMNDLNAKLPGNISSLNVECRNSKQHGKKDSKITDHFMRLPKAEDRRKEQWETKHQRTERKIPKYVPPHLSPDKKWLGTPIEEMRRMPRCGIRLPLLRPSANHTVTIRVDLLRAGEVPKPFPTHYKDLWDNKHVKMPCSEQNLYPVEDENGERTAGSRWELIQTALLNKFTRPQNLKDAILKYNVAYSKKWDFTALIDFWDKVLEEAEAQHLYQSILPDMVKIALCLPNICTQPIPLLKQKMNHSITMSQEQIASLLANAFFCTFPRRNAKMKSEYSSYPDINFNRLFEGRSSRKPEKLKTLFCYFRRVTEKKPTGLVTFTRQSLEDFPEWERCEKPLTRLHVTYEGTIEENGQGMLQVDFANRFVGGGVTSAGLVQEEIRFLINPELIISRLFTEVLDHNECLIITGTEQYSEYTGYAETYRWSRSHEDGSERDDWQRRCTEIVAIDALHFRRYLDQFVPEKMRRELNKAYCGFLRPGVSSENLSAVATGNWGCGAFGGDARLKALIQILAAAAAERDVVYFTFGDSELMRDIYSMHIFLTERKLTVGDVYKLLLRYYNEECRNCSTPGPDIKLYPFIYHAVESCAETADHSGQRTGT
pIC50: −log10 of the molar value.
EXPERIMENTAL ENDPOINT: pIC50

Field: example entries. Status: answers known.
N#CC1(NS(=O)(=O)c2ccc3c4c(N5CCN(C(=O)C6COC6)CC5)ncnc4n(-c4nnc(C(F)F)s4)c3c2)CC1 | > 7.00
CN(C)C(=O)N1CC=C(c2ncnc3c2c2cc(F)c(S(=O)(=O)NC4(C)CC4)cc2n3-c2nnc(C(F)F)s2)CC1 | > 7.00

Consider the additional compound presented here.
IN: So what's the measured pIC50 for this one? N#CC1(NS(=O)(=O)c2ccc3c4c(C5CCC(O)CC5)ncnc4n(-c4nnc(C(F)F)s4)c3c2)CC1 (stereo not drawn)
OUT: > 7.00

###

Reported pIC50 values follow for various compounds
System: Kuramochi cell line
ASSAY EXPLANATION: Cell Viability Assay (Cell Titer-Glo, 7 days)
Type: cell-based
RUN PARAMETERS: 168 h, Kuramochi cells, 7 days incubation, read-out: PARG Cell viability (IC50)
pIC50: −log10 of the molar value.

N#CC1(NS(=O)(=O)c2ccc3c4c(N5CC[C@@H](O)[C@@H](F)C5)ncnc4n(-c4nnc(C(F)F)s4)c3c2)CC1 | > 7.00
N#CC1(NS(=O)(=O)c2ccc3c4c(N5CCN(C(=O)N6CCC6)CC5)ncnc4n(-c4nnc(C(F)F)s4)c3c2)CC1 | > 7.00
CN(C)C(=O)N1CCC(c2ncnc3c2c2cc(F)c(S(=O)(=O)NC4(C)CC4)cc2n3-c2nnc(C(F)F)s2)CC1 | > 7.00
N#CC1(NS(=O)(=O)c2ccc3c4c(C5CCN(C(=O)N6CC[C@@H](O)C6)CC5)ncnc4n(-c4nnc(C(F)F)s4)c3c2)CC1 | 6.00 to 7.00
CC(C)(C)C(=O)N1CCN(c2ncnc3c2c2ccc(S(=O)(=O)NC4(C#N)CC4)cc2n3-c2nnc(C(F)F)s2)CC1 | > 7.00
CN(C)C(=O)c1ccc(-c2ncnc3c2c2ccc(S(=O)(=O)NC4(C#N)CC4)cc2n3-c2nnc(C(F)F)s2)cn1 | > 7.00

IN: Query (compound): N#CC1(NS(=O)(=O)c2ccc3c4c(N5CCN(c6cccnn6)CC5)ncnc4n(-c4nnc(C(F)F)s4)c3c2)CC1 ; field requested: pIC50
OUT: 6.00 to 7.00

###

System: Kuramochi cell line
ASSAY EXPLANATION: Cell Viability Assay (Cell Titer-Glo, 7 days)
Assay type: cell-based
RUN PARAMETERS: 168 h, Kuramochi cells, 7 days incubation, read-out: PARG Cell viability (IC50)
Experimental: Cell viability studies were conducted in Kuramochi cell line. Cells were maintained in RPMI (Hyclone, Catalog #: SH3080901B) supplemented with 10% v/v FBS (AusGeneX, Catalog #: FBS500-S), 1% v/v Penicillin Streptomycin (Gibco, Catalog #: 15140122). […] Cell viability was measured using the Cell Titer-Glo reagent (Promega, Catalog #: G7573) as manufacturer's instructions. Luminescence signal was measured with a multimode plate reader (Perkin Elmer, Envision 2105 or BMG, ClarioStar Plus). […]
pIC50: −log10 of the molar value.
# key: entry, value: pIC50

In the examples that follow, each entry is paired with its recorded pIC50.
C[C@H](O)C(=O)N1CCC(c2ncnc3c2c2ccc(S(=O)(=O)NC4(C#N)CC4)cc2n3-c2nnc(C(F)F)s2)CC1 [Example 106] | > 7.00
Cc1nnc(-n2c3cc(S(=O)(=O)NC4(C#N)CC4)ccc3c3c(N4CCN(C(=O)C5CC5)CC4)ncnc32)s1 [Example 185] | 6.00 to 7.00
CN(C)[C@@H]1CCN(C(=O)N2CCC(c3ncnc4c3c3ccc(S(=O)(=O)NC5(C#N)CC5)cc3n4-c3nnc(C(F)F)s3)CC2)C1 [Example 137] | 6.00 to 7.00
N#CC1(NS(=O)(=O)c2ccc3c4c(C5CCN(C(=O)N6CC[C@H](O)C6)CC5)ncnc4n(-c4nnc(C(F)F)s4)c3c2)CC1 [Example 130] | 6.00 to 7.00
N#CC1(NS(=O)(=O)c2ccc3c4c(N5CCN(C(=O)c6ccccn6)CC5)ncnc4n(-c4nnc(C(F)F)s4)c3c2)CC1 [Example 14] | > 7.00
CC1(C(=O)N2CC3CN(c4ncnc5c4c4ccc(S(=O)(=O)NC6(C#N)CC6)cc4n5-c4nnc(C(F)F)s4)CC3C2)CC1 (stereo not shown) [Example 36] | 6.00 to 7.00
C[C@@H]1CN(c2ncnc3c2c2ccc(S(=O)(=O)NC4(C#N)CC4)cc2n3-c2nnc(C(F)F)s2)C[C@H](C)N1C(=O)C1CC1 [Example 29] | > 7.00
CC(C)CN1CCN(c2ncnc3c2c2ccc(S(=O)(=O)NC4(C#N)CC4)cc2n3-c2nnc(C(F)F)s2)CC1=O [Example 158] | > 7.00

IN: Requested read-out: pIC50. Entry: CC(C)C(=O)N1CCC(c2ncnc3c2c2ccc(S(=O)(=O)NC4(C#N)CC4)cc2n3-c2nnc(C(F)F)s2)C[C@@H]1C (stereo partly shown) [Example 151]
OUT: > 7.00

IN: What does the data say about its pIC50? Entry: CC(C)C(=O)N1CC2(C1)CN(c1ncnc3c1c1ccc(S(=O)(=O)NC4(C#N)CC4)cc1n3-c1nnc(C(F)F)s1)C2 [Example 23]
OUT: 6.00 to 7.00

IN: Field request: pIC50 | item: CN1CC(C(=O)N2CCN(c3ncnc4c3c3ccc(S(=O)(=O)NC5(C#N)CC5)cc3n4-c3nnc(C(F)F)s3)CC2)C1 [Example 65]
OUT: 6.00 to 7.00

IN: Tell me the measured pIC50 of N#CC1(NS(=O)(=O)c2ccc3c4c(N5CCN(C(=O)N6CCOCC6)CC5)ncnc4n(-c4nnc(C(F)F)s4)c3c2)CC1 [Example 8] , please.
OUT: > 7.00

IN: For the compound CO[C@H](C)C(=O)N1CCC(c2ncnc3c2c2ccc(S(=O)(=O)NC4(C)CC4)cc2n3-c2nnc(C(F)F)s2)CC1 [Example 95] , what pIC50 is on record?
OUT: > 7.00
